system: HS 578T breast; assay: NCI tumour cell line growth inhibition, 48 h
TGI values by entry

{"columns": ["molecule", "TGI"],
 "data": [
  ["COc1cc2nc(Nc3cccc(Cl)c3)nc(N)c2cc1OC", "31.6 µM"],
  ["COc1ccc(S(=O)(=O)Nc2ccc(-c3csc(N4C(=O)/C(=C/c5ccccc5[N+](=O)[O-])N=C4c4ccccc4)n3)cc2)cc1Cl", "> 100 µM"],
  ["CC(C)(C)OC(=O)C1C(=O)NC(=O)CC1CC(OCc1ccccc1)C(OCc1ccccc1)C(COCc1ccccc1)OCc1ccccc1 (stereo unspecified)", "> 100 µM"],
  ["Cc1c(NC(=S)Nc2ccc([N+](=O)[O-])cc2)c(=O)n(-c2ccccc2)n1C", "> 100 µM"],
  ["CCCCSC1=N/C(=C\\c2ccccc2O)C(=O)N1", "> 100 µM"],
  ["Fc1cc(C2=Nn3c(COc4ccccc4Cl)nnc3S/C2=C\\c2ccc(Cl)cc2)c(Cl)cc1Cl", "36.4 µM"]
]}

###

test system: PC-3 prostate; test: NCI tumour cell line growth inhibition, 48 h
Where a SMILES comes first, the peptide text is derived from it. [ ]: non-standard residue; d: D form. pGlu = O=C1CC[CH](C(=O)O)N1; Thz = O=C(O)[CH]1CSCN1
TGI values by entry

{"columns": ["compound", "TGI"],
 "data": [
  ["NCCCCC(NC(=O)C(N)CCCN=C(N)N)C(=O)NC(CCCCN)C(=O)NC(CCCN=C(N)N)C(=O)NC(CCCN=C(N)N)C(=O)NC(CCC(N)=O)C(=O)NC(CCCN=C(N)N)C(=O)NC(CCCN=C(N)N)C(=O)NC(CCCN=C(N)N)C(=O)NCC(=O)NCC(=O)O (stereo not drawn)", "> 50 µM"],
  ["C=CCC1(C(=O)OC)CCC/C(=N\\O)C1 (stereo not drawn)", "> 10 µM"],
  ["O=C1CCC(C(=O)N2CSCC2C(=O)O)N1 (stereo not drawn) ([pGlu]-[Thz]-OH; configuration not given here)", "> 100 µM"],
  ["CCOC(=O)c1c(O)cn2c1[nH]c1cccc3cccc2c31", "> 100 µM"],
  ["CCOC(=O)c1c(N)sc2c1CC(C)CC2 (stereo not drawn)", "> 100 µM"],
  ["CN(C)c1ccc(/C=C/C=c2/c3ccccc3n3c2cc(-c2ccccc2)[n+]3C)cc1", "1.17 µM"],
  ["CCC1=C(c2ccc(OC)cc2)C(C)(C)Oc2c1ccc(O)c2CN1CCCC1", "29.3 µM"],
  ["COc1ccc(NC(=O)Oc2ccc3c(C)cc(=O)oc3c2)c(OC)c1 (tested in a mixture with another compound)", "> 100 µM"]
]}

###

tested on: OVCAR-5 ovarian; experiment: NCI tumour cell line growth inhibition, 48 h
result.type: TGI

{"columns": ["compound", "study.system", "result.type", "reading"],
 "data": [
  ["COC(=O)c1cc2c(c(C(=O)OC)c1)CCC2", "OVCAR-5 ovarian", "TGI", "> 100 µM"],
  ["CO/C=C(/C(=O)OC)[C@@H]1C[C@@H]1c1ccc2ccccc2c1", "OVCAR-5 ovarian", "TGI", "> 100 µM"],
  ["COc1ccc(NC(=O)Oc2ccc3c(C)cc(=O)oc3c2)c(OC)c1 (tested in a mixture with another compound)", "OVCAR-5 ovarian", "TGI", "> 100 µM"],
  ["CCOP(=O)(CC(=O)C1CC1)OCC", "OVCAR-5 ovarian", "TGI", "> 100 µM"],
  ["CCSC[C@@H]1C[C@](O)(c2ccc(Cl)cc2)[C@@H](c2ccc(Cl)cc2)O1", "OVCAR-5 ovarian", "TGI", "34.3 µM"],
  ["CCC[CH2][Sn](=[O])[CH2]CCC", "OVCAR-5 ovarian", "TGI", "> 50 µM"],
  ["COc1ccc2c(c1)CCC1C2CC[C@@]2(C)C1CC[C@@H]2NC(=O)Cc1ccc(O)c(O)c1 (stereo partly specified)", "OVCAR-5 ovarian", "TGI", "37.7 µM"],
  ["COC1OC2COC1(OCc1ccccc1)C1OC(C)(C)OC21 (stereo unspecified)", "OVCAR-5 ovarian", "TGI", "> 100 µM"],
  ["Cc1ccc2c(c1)nc1n2C(c2c(F)cccc2F)SC1 (stereo unspecified)", "OVCAR-5 ovarian", "TGI", "> 100 µM"],
  ["Nc1nc(Cl)cc(NCC2(CCO)CCC2)n1", "OVCAR-5 ovarian", "TGI", "> 100 µM"],
  ["COC(=O)C1CCC(=O)N1C(c1ccc(OC)cc1)c1cc(OC)c(OC)c(OC)c1 (stereo unspecified)", "OVCAR-5 ovarian", "TGI", "> 100 µM"]
]}
